Answer each item with its documented ratio to parent.
B1: H2-Kb / F4 (parent complex)
chain 1: QQQVRQSPQSLTVWEGETAILNCSYEDSTFNYFPWYQQFPGEGPALLISIRSVSDKKEDGRFTIFFNKREKKLSLHITDSQPGDSATYFCAAMSNYNVLYFGSGTKLTVEP
chain 2: ETAVFQTPNYHVTQVGNEVSFNCKQTLGHDTMYWYKQDSKKLLKIMFSYNNKQLIVNETVPRRFSPQSSDKAHLNLRIKSVEPEDSAVYLCASSARQNSPLYFAAGTRLTVT
chain 3: not shown
chain 4: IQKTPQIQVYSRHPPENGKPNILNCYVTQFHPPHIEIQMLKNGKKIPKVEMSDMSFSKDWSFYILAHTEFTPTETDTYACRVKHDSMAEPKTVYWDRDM
chain 5: SIINFEKL

Variants of: B1
assay-overview: % of reporter cells activated (NFAT-GFP), raw; note: test concentration or dose not given here
Numbers only.

Look over these answered cases.
chain 5 I3Y ... 0.517
chain 5 S1V ... 0.0638

For every item below, please supply its ratio to parent.
1. chain 5 K7D
2. chain 5 S1H
3. chain 5 L8V
4. chain 5 L8D
5. chain 5 E6S
6. chain 5 I2Q
7. chain 5 K7H

Result block:
0.101
0.0509
0.457
0.312
0.0357
0.181
1.35

Return reported ratio to parent values for all items listed beneath this line.
1. chain 5 I3A
2. chain 5 E6W
3. chain 5 N4D
4. chain 5 S1N
5. chain 5 K7S
6. chain 5 I3M
7. chain 5 F5L
8. chain 5 I2L

Result block:
1. 0.467
2. 0.113
3. 0.0277
4. 0.0308
5. 0.261
6. 0.125
7. 0.554
8. 1.25

Dear colleague, could you send me ratio to parent for each of the items below? Thanks.
1. chain 5 I3F
2. chain 5 E6C
3. chain 5 K7A
4. chain 5 N4P
5. chain 5 I3S
6. chain 5 I3P

Result block:
1. 1
2. 0.537
3. 0.222
4. 0.0246
5. 0.106
6. 0.083

Quick one: give me ratio to parent for each item below, same order please.
1. chain 5 F5C
2. chain 5 I2T
3. chain 5 N4Y
4. chain 5 N4T

Result block:
1. 1.29
2. 0.773
3. 0.0299
4. 0.0402

# map each variant to its ratio to parent
1. chain 5 I3W
2. chain 5 I2D
3. chain 5 I2W
4. chain 5 S1C

Result block:
[0.358, 0.406, 0.641, 0.0254]

Look up ratio to parent for the entries below, preserving their order.
1. chain 5 N4M
2. chain 5 E6Y
3. chain 5 E6D

Result block:
1. 0.021
2. 0.0161
3. 0.987

Query block: What value of measured ratio to parent is listed for chain 5 K7G ?
Result block: 0.234

// data source = paper PMC11480844
